test: Caspase-3/7 induction in HepG2 cells by small molecules, qHTS cell viability counter screen (AID 1346981); settings: CellTiter-Fluor fluorescence, 17 h; series mostly up to 92.4 µM; also: nearly all actives have a fitted effect of over 30% in size; also: potency is read from the fitted curve at half-maximal effect
Records with an inconclusive call do not appear. Calls of active or inactive are those of the source. Calls follow the shape of the dose curve; as a rule, active = well fitted cell-killing curve with a large enough effect in the repeat runs; inconclusive = weak or mixed curves, or effect the other way; inactive = flat fitted curve, though single readings scatter.
measured quantity: Potency

Examples with answers:
Param item = ClC(Cl)=C(Cl)Cl ; retrieve measured Potency. inactive

So what's the measured Potency for this one? CN(C)CCc1c[nH]c2cccc(O)c12 inactive

What does the record list as Potency for Oc1ccc2ccc3cccc4ccc1c2c34 ? inactive

Data request, read-out Potency, for COc1ccc(N)cc1N 56.2 µM (active)

Could you tell me which Potency is on file for O=[N+]([O-])c1ccc(Oc2ccc(C(F)(F)F)cc2[N+](=O)[O-])cc1 ? inactive

// Potency lookup, key: CC(C)(C)OO inactive

I have this compound here, CCN(CC)c1c([N+](=O)[O-])cc(C(F)(F)F)c(N)c1[N+](=O)[O-] , and I need its recorded Potency. inactive

// Potency lookup, key: N#Cc1ccccc1Cl inactive

Further cases:
Tell me the measured Potency of COc1cc(C=O)cc2c1[C@H](COC(N)=O)[C@]1(OC(C)=O)ON2C[C@H]2[C@@H]1N2C(C)=O , please. 2.73 µM (active)

Find the recorded Potency belonging to CC(=O)O[C@H]1CC[C@@]2(C)C(=CC[C@@H]3[C@@H]2CC[C@]2(C)C(=O)CC[C@@H]32)C1 and report it. inactive

What does the record list as Potency for S=C=Nc1cccc2ccccc12 ? 60.5 µM (active)

Which measured Potency value corresponds to CCOP(=S)(OCC)SCCS(=O)(=O)CC ? inactive

# input compound: COCC(=O)N(c1c(C)cccc1C)[C@H](C)C(=O)OC ; wanted: its Potency inactive

Record request: Potency value, item CCCCCCCCCCCCCCC(Br)C(=O)O (stereo not drawn) inactive

Name the recorded Potency for Cn1cc(C2=C(c3cn(C4CCN(Cc5ccccn5)CC4)c4ccccc34)C(=O)NC2=O)c2ccccc21 . 10.6 µM (active)

Item O=CC(Br)(Br)Br has what recorded Potency? 54.3 µM (active)

Given the compound CC1(C)CC/C(=C/c2ccc(Cl)cc2)C1(O)Cn1cncn1 (stereo not drawn) , what is its reported Potency? inactive

Entry CN(CCCC(O)c1cccnc1)N=O (stereo not drawn) : reported Potency = ? inactive

* * *

test: qHTS assay to identify small molecule agonists of the peroxisome proliferator-activated receptor delta (PPARd) signaling pathway - cell viability counter screen (AID 743211); settings: PPARd-bla HEK293H viability, CellTiter-Glo luminescence, 17 h; series mostly up to 62.6 µM; also: nearly all actives have a fitted effect of over 55% in size
Results filed as inconclusive are left out. The source made the active and inactive calls. Calls follow the shape of the dose curve; as a rule, active = well fitted cell-killing curve with a large enough effect in the repeat runs; inconclusive = weak or mixed curves; inactive = no such curve, though single readings can be large or run the other way.
Classes to choose from: label 1 for active, label 0 for inactive

Could you kindly confirm the outcome this assay logged for C=CC(=O)OCCCCOC(=O)C=C ? label 1

Given C[C@H]1CC[C@@H]2[C@@H](C)[C@H]3[C@H](C[C@H]4[C@@H]5CC=C6CC(O[C@@H]7O[C@H](CO)[C@H](O)[C@H](O[C@@H]8O[C@H](CO)[C@@H](O)[C@H](O)[C@H]8O)[C@H]7O[C@H]7O[C@@H](C)[C@H](O)[C@@H](O)[C@H]7O)CC[C@]6(C)[C@H]5CC[C@]34C)N2C1 (stereo partly drawn) , state the outcome it received in this test. label 1

Look up the recorded call for CC(=O)Nc1ccc2c(c1)Cc1ccccc1-2 in this test. label 0

Look up the recorded call for Clc1ccc(CO/N=C(\Cn2ccnc2)c2ccc(Cl)cc2Cl)c(Cl)c1 in this test. label 0

Look up the recorded call for CN(C)c1ccc(N=Nc2ccccc2)cc1 in this test. label 0

***
Record lookup: outcome of this test for COc1cc(N)c(Cl)cc1C(=O)NC1CN2CCC1CC2 (stereo not drawn) ? label 0

Hi, sorry to bother you, what did the test record for ClC1=C(Cl)[C@]2(Cl)[C@H]3[C@H]([C@H]4C=C[C@H]3C4)[C@@]1(Cl)C2(Cl)Cl ? label 0

Would you mind telling me which call this test gave O=C(CBr)c1ccc(O)cc1 ? label 0

* * *

// reported Potency per item
assay: qHTS RealTime-Glo MT Cell Viability Assay in HEK293 cells - 40 hour (AID 1224874); settings: RealTime-Glo luminescence; also: potency is read from the fitted curve at half-maximal effect; nearly all actives have a fitted effect of over 50% in size
Records with an inconclusive call do not appear. Activity calls are given as the source filed them. The call rests on the fitted dose curve; in most records, active means well fitted cell-killing curve with a large enough effect in the repeat runs; inconclusive means weak or mixed curves, or effect the other way; inactive means flat fitted curve, though single readings scatter.

Record excerpt, results attached:
Dear colleague, I am looking for the recorded Potency of the following molecule: O=c1[nH]c2ccccc2n1CCCN1CCC(n2c(=O)[nH]c3cc(Cl)ccc32)CC1 10.7 µM (active)

// returns reported Potency for input CCOC(=O)CC(=O)CCl 43.6 µM (active)

May I ask what Potency has been recorded for C[C@@H]1O[C@@H](O[C@@H]2C=C3CC[C@@H]4[C@H](CC[C@]5(C)[C@@H](c6ccc(=O)oc6)CC[C@]45O)[C@@]3(C)CC2)[C@H](O)[C@H](O)[C@H]1O ? 0.019 µM (active)

Others:
Consider the molecule Clc1ccc(C(c2ccc(Cl)cc2)C(Cl)(Cl)Cl)cc1 and give its measured Potency. 39.2 µM (active)

* * *

experiment: qHTS assay to identify small molecule agonists of the estrogen receptor alpha (ER-alpha) signaling pathway in the presence of an antagonist - cell viability counter screen (AID 1259386); conditions: VM7Luc4E2 viability, CellTiter-Fluor fluorescence, 22 h; series mostly up to 92.4 µM;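 also: cells exposed to compounds for 22 h at 37 °C before the viability read; nearly all actives have a fitted effect of over 30% in size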
Results filed as inconclusive are left out. Activity calls are given as the source filed them. Calls follow the shape of the dose curve; as a rule, active = well fitted cell-killing curve with a large enough effect in the repeat runs; inconclusive = weak or mixed curves, or effect the other way; inactive = no such curve, though single readings can be large or run the other way.
Select the matching outcome among Y for active, N for inactive

Answered examples (10):
Give the logged outcome of this assay for the following molecule: CCc1ccccc1C N

Assay result, entry CCCCCCCCCCCCCCC(Br)C(=O)O (stereo not given) — outcome? N

Tell me the assay call for CC(C)OC(=S)S please. N

GET /call?item= CCOc1cc(C(C)(C)C)ccc1C1COC(c2c(F)cccc2F)=N1 (stereo not given) returns the recorded outcome of this test. N

Each molecule tested received a call. Report the one for COC(=O)N(C(=O)N1COC2(C(=O)OC)Cc3cc(Cl)ccc3C2=N1)c1ccc(OC(F)(F)F)cc1 (stereo not given) . N

Recorded test call requested for CC(=O)c1ccc(-c2ccccc2)cc1 N

Recorded call for CCCCCCCCCCCCCCCC[N+](C)(C)C ? N

Just curious, what result did C[C@@H](Oc1ccc(Cl)cc1Cl)C(=O)O get here? N

State the result this test recorded for ClC1=C(Cl)[C@]2(Cl)[C@@H]3[C@@H](Cl)[C@@H](Cl)C[C@@H]3[C@@]1(Cl)C2(Cl)Cl . N

Short answer needed: outcome of this test for Cc1cc(C)c(C2=C(OC(=O)CC(C)(C)C)C3(CCCC3)OC2=O)c(C)c1 ? N

Continuing:
Which result was noted for this molecule in the test: CCS(=O)(=O)c1cccnc1S(=O)(=O)NC(=O)Nc1nc(OC)cc(OC)n1 N

Could you please tell me the result logged for CC(C)OC(=O)C(O)(c1ccc(Cl)cc1)c1ccc(Cl)cc1 in this assay? N

Entry Nc1c(Oc2ccccc2)cc(O)c2c1C(=O)c1ccccc1C2=O : call = ? Y

Please indicate how the test categorized Cc1c(Cl)c(=O)oc2cc(OP(=O)(OCCCl)OCCCl)ccc12 . N

Could you check what this test reported for CC(C)[C@H](C(=O)O[C@H](C#N)c1cccc(Oc2ccccc2)c1)c1ccc(Cl)cc1 ? N

* * *

experiment: qHTS assay to identify small molecule that activate the aryl hydrocarbon receptor (AhR) signaling pathway - cell viability counter screen (AID 743086); conditions: HepG2-AhR-luc viability, CellTiter-Fluor, 24 h; series mostly up to 70.3 µM; also: nearly all actives have a fitted effect of over 45% in size
Inconclusive results are not listed. Calls of active or inactive are those of the source. Calls follow the shape of the dose curve; as a rule, active = well fitted cell-killing curve with a large enough effect in the repeat runs; inconclusive = weak or mixed curves, or effect the other way; inactive = flat fitted curve, though single readings scatter.
Assign a class; possible classes are active, inactive

In this assay, the call recorded for CC(C)Oc1cccc(NC(=O)c2ccccc2C(F)(F)F)c1 was what? inactive

Hey, what did the test say about COc1cccc(C(=O)CCN[C@@H](C)[C@H](O)c2ccccc2)c1 ? inactive

Switching to the query record.
Can you look up the reported call for CC(=O)[O-].CC(=O)[O-].[Hg+2] for me? active

* * *

molecular target: Peroxisome proliferator-activated receptor gamma (Homo sapiens) (UniProt P37231); assay: qHTS assay to identify small molecule agonists of the peroxisome proliferator-activated receptor gamma (PPARg) signaling pathway (AID 743094); details: HEK293H PPARg-UAS-bla, beta-lactamase FRET ratio, 17 h; series mostly up to 57 µM; also: % is scaled to controls: 0 for no effect and ±100 for the full control effect
Sequence (P37231 whole entry, looked up): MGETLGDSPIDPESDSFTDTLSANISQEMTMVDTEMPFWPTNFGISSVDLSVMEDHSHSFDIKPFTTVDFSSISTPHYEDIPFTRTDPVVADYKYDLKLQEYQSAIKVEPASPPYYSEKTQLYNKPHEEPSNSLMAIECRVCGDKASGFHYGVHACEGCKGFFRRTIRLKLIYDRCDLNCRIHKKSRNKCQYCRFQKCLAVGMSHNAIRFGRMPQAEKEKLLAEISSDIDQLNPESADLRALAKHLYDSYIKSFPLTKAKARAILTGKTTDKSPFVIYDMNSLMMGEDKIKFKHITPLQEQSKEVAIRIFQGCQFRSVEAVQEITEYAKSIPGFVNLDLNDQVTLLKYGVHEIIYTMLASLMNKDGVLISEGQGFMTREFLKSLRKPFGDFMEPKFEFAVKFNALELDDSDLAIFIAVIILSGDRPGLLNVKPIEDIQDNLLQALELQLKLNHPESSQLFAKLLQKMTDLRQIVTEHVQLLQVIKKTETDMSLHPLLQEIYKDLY
Records with an inconclusive call do not appear. Calls of active or inactive are those of the source. Calls follow the shape of the dose curve; as a rule, active = well fitted activation curve with a large enough effect in the signal ratio in the repeat runs (not every such curve was filed as active); inconclusive = weak or mixed curves, or effect the other way; inactive = no such curve, though single readings can be large or run the other way; the % refers to the signal ratio.
Give your call using only these classes: active, inactive

Consider the worked cases shown below.
Outcome? Cc1cc(C(F)(C(F)(F)F)C(F)(F)F)ccc1NC(=O)c1cccc(I)c1C(=O)NC(C)(C)CS(C)(=O)=O inactive

How was CN(C)C1CSSSC1 classified in this test? inactive

Could you now look at the following molecule, please?
What did the test return for COc1cccc(C(=O)CCN[C@@H](C)[C@H](O)c2ccccc2)c1 ? inactive

* * *

assay: A CellTox Green Cytotoxicity Assay to monitor cytotoxicity in HepG2 cells - 40 hour (AID 1224879); details: CellTox Green fluorescence; series mostly up to 76.8 µM; also: nearly all actives have a fitted effect of over 40% in size
Records with an inconclusive call do not appear. Activity calls are given as the source filed them. Calls follow the shape of the dose curve; as a rule, active = well fitted activation curve with a large enough effect in the repeat runs; inconclusive = weak or mixed curves; inactive = flat fitted curve, though single readings scatter.
Mark one answer only. Choices: class 1 for active, class 0 for inactive

These recorded examples may help you get a feel for the data.
What did the test return for COc1ccc(OC)c(C=O)c1 ? class 0

What classification did O=[N+]([O-])c1cc(C(F)(F)F)c(Cl)c([N+](=O)[O-])c1Cl end up with in this test? class 1

Read the next record carefully.
Hi, do you know how C[C@@H](Oc1ccc(Cl)cc1Cl)C(=O)O came out in this test? class 0
